tested on: 439559-082-T-J2-PDC complex spheroid growth; assay: Anticancer human tumor 439559-082-T-J2-PDC patient-derived colon adenocarcinoma cell line growth inhibition [Asc]; conditions: second compound 0.01 µM; first compound 0.0316 µM; stronger effect = lower value
Give measured viability, T/C for each item. Keep answers brief.
API: value field is a number in %; no unit string.

Reported viability, T/C for O=C(c1ccc(F)c(F)c1Nc1ccc(I)cc1F)N1CC(O)([C@@H]2CCCCN2)C1 + CNC(C)C(=O)NC1CN(S(=O)(=O)c2cccc(S(=O)(=O)N3CCC4CCC(C(=O)NC(c5ccccc5)c5ccccc5)N4C(=O)C(NC(=O)C(C)NC)C3)c2)CCC2CCC(C(=O)NC(c3ccccc3)c3ccccc3)N2C1=O : what is it?
87.7

May I ask what viability, T/C has been recorded for O=C(c1cc(Cc2n[nH]c(=O)c3ccccc23)ccc1F)N1CCN(C(=O)C2CC2)CC1 + CNC(C)C(=O)NC1CN(S(=O)(=O)c2cccc(S(=O)(=O)N3CCC4CCC(C(=O)NC(c5ccccc5)c5ccccc5)N4C(=O)C(NC(=O)C(C)NC)C3)c2)CCC2CCC(C(=O)NC(c3ccccc3)c3ccccc3)N2C1=O ?
94.2

For the molecule shown here, Cn1ncnc1[C@H]1c2n[nH]c(=O)c3cc(F)cc(c23)N[C@@H]1c1ccc(F)cc1 + CNC(C)C(=O)NC1CN(S(=O)(=O)c2cccc(S(=O)(=O)N3CCC4CCC(C(=O)NC(c5ccccc5)c5ccccc5)N4C(=O)C(NC(=O)C(C)NC)C3)c2)CCC2CCC(C(=O)NC(c3ccccc3)c3ccccc3)N2C1=O , give the reported viability, T/C.
95.2

# input molecule: C=CC(=O)N1CCN(c2nc(=O)n(-c3c(C)ccnc3C(C)C)c3nc(-c4c(O)cccc4F)c(F)cc23)C(C)C1 (configuration not stated) + CNC(C)C(=O)NC1CN(S(=O)(=O)c2cccc(S(=O)(=O)N3CCC4CCC(C(=O)NC(c5ccccc5)c5ccccc5)N4C(=O)C(NC(=O)C(C)NC)C3)c2)CCC2CCC(C(=O)NC(c3ccccc3)c3ccccc3)N2C1=O ; wanted: its viability, T/C
110

Fill in: viability, T/C of C=C(F)C(=O)N1CCN(c2nc(OCC3CCCN3C)nc3c2CCN(c2cccc4cccc(Cl)c24)C3)CC1CC#N (configuration not stated) + CNC(C)C(=O)NC1CN(S(=O)(=O)c2cccc(S(=O)(=O)N3CCC4CCC(C(=O)NC(c5ccccc5)c5ccccc5)N4C(=O)C(NC(=O)C(C)NC)C3)c2)CCC2CCC(C(=O)NC(c3ccccc3)c3ccccc3)N2C1=O is ___
98.8

Given CCN1CCN(Cc2ccc(Nc3ncc(F)c(-c4cc(F)c5nc(C)n(C(C)C)c5c4)n3)nc2)CC1 + CNC(C)C(=O)NC1CN(S(=O)(=O)c2cccc(S(=O)(=O)N3CCC4CCC(C(=O)NC(c5ccccc5)c5ccccc5)N4C(=O)C(NC(=O)C(C)NC)C3)c2)CCC2CCC(C(=O)NC(c3ccccc3)c3ccccc3)N2C1=O , state its recorded viability, T/C.
87.3

For the molecule NC1CCC(NC2CC2c2ccccc2)CC1 (configuration not stated) + CNC(C)C(=O)NC1CN(S(=O)(=O)c2cccc(S(=O)(=O)N3CCC4CCC(C(=O)NC(c5ccccc5)c5ccccc5)N4C(=O)C(NC(=O)C(C)NC)C3)c2)CCC2CCC(C(=O)NC(c3ccccc3)c3ccccc3)N2C1=O , what viability, T/C is on record?
99.5

* * *

test system: 439559-082-T-J2-PDC complex spheroid growth; assay: Anticancer human tumor 439559-082-T-J2-PDC cell line growth inhibition [Asc]; settings: second compound 1 µM; first compound 0.0316 µM; stronger effect = lower value;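 further: spheroids exposed to agents for 7 days starting day 3 after seeding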;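 on viability, T/C: percent of DMSO vehicle control viability with 100% = vehicle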
Provide the reported viability, T/C of each item.

For O=C(c1ccc(F)c(F)c1Nc1ccc(I)cc1F)N1CC(O)([C@@H]2CCCCN2)C1 + CNC(C)C(=O)NC1CN(S(=O)(=O)c2cccc(S(=O)(=O)N3CCC4CCC(C(=O)NC(c5ccccc5)c5ccccc5)N4C(=O)C(NC(=O)C(C)NC)C3)c2)CCC2CCC(C(=O)NC(c3ccccc3)c3ccccc3)N2C1=O , what is its reported viability, T/C?
68.2%

For the molecule shown here, NC1CCC(NC2CC2c2ccccc2)CC1 (centres undefined) + Cc1c(S(C)(=O)=O)c(-c2cc(F)cc(N3CCN(c4ccc(NS(=O)(=O)c5ccc(NC(CCN6CCC(C(=O)OCCCP(=O)(O)O)CC6)CSc6ccccc6)c(S(=O)(=O)C(F)(F)F)c5)cc4)CC3)c2)c(-c2ccc(Cl)cc2)n1C(C)C , give the reported viability, T/C.
97.8%

Item O=C(c1ccc(F)c(F)c1Nc1ccc(I)cc1F)N1CC(O)([C@@H]2CCCCN2)C1 + Cc1c(S(C)(=O)=O)c(-c2cc(F)cc(N3CCN(c4ccc(NS(=O)(=O)c5ccc(NC(CCN6CCC(C(=O)OCCCP(=O)(O)O)CC6)CSc6ccccc6)c(S(=O)(=O)C(F)(F)F)c5)cc4)CC3)c2)c(-c2ccc(Cl)cc2)n1C(C)C has what recorded viability, T/C?
84.6%

Would you kindly share the measured viability, T/C for C=CC(=O)N1CCN(c2nc(=O)n(-c3c(C)ccnc3C(C)C)c3nc(-c4c(O)cccc4F)c(F)cc23)C(C)C1 (centres undefined) + Cc1c(S(C)(=O)=O)c(-c2cc(F)cc(N3CCN(c4ccc(NS(=O)(=O)c5ccc(NC(CCN6CCC(C(=O)OCCCP(=O)(O)O)CC6)CSc6ccccc6)c(S(=O)(=O)C(F)(F)F)c5)cc4)CC3)c2)c(-c2ccc(Cl)cc2)n1C(C)C ?
99.1%

* * *

tested on: 439559-082-T-J2-PDC complex spheroid growth; test: Anticancer human tumor 439559-082-T-J2-PDC cell line growth inhibition [Asc]; settings: second compound 0.03 µM; first compound 10 µM; stronger effect = lower value;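 further: spheroids exposed to agents for 7 days starting day 3 after seeding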;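 on viability, T/C: percent of DMSO vehicle control viability with 100% = vehicle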
Provide the recorded viability, T/C for the entries that follow.
State the answer as a number, implicitly in %.

If you can, please state the reported viability, T/C value of O=C(c1cc(Cc2n[nH]c(=O)c3ccccc23)ccc1F)N1CCN(C(=O)C2CC2)CC1 + CCN1C(C(=O)NC23CCC(C(=O)O)(CC2)CC3)C(c2cccc(Cl)c2F)C2(C(=O)Nc3cc(Cl)ccc32)C12CCCCC2 .
87.8

Given C=C(F)C(=O)N1CCN(c2nc(OCC3CCCN3C)nc3c2CCN(c2cccc4cccc(Cl)c24)C3)CC1CC#N (centres undefined) + CCN1C(C(=O)NC23CCC(C(=O)O)(CC2)CC3)C(c2cccc(Cl)c2F)C2(C(=O)Nc3cc(Cl)ccc32)C12CCCCC2 , state its recorded viability, T/C.
27

# input compound: C#Cc1c(F)ccc2cc(O)cc(-c3ncc4c(N5CC6CCC(C5)N6)nc(OCC56CCCN5CC(F)C6)nc4c3F)c12 (centres undefined) + CCN1C(C(=O)NC23CCC(C(=O)O)(CC2)CC3)C(c2cccc(Cl)c2F)C2(C(=O)Nc3cc(Cl)ccc32)C12CCCCC2 ; wanted: its viability, T/C
40

Need viability, T/C, item C=CC(=O)N1CCN(c2nc(=O)n(-c3c(C)ccnc3C(C)C)c3nc(-c4c(O)cccc4F)c(F)cc23)C(C)C1 (centres undefined) + CCN1C(C(=O)NC23CCC(C(=O)O)(CC2)CC3)C(c2cccc(Cl)c2F)C2(C(=O)Nc3cc(Cl)ccc32)C12CCCCC2
98.6

* * *

system: 439559-082-T-J2-PDC complex spheroid growth; experiment: Anticancer human tumor 439559-082-T-J2-PDC cell line growth inhibition [Asc]; conditions: curve of first compound; second compound 1 µM;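 further: spheroids exposed to agents for 7 days starting day 3 after seeding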
Assay metric: IC50

Give the measured IC50 of COc1c(OCCCN2CCOCC2)ccc2c3n(c(=NC(=O)c4cnc(N)nc4)nc12)CCN3 + Cc1c(S(C)(=O)=O)c(-c2cc(F)cc(N3CCN(c4ccc(NS(=O)(=O)c5ccc(NC(CCN6CCC(C(=O)OCCCP(=O)(O)O)CC6)CSc6ccccc6)c(S(=O)(=O)C(F)(F)F)c5)cc4)CC3)c2)c(-c2ccc(Cl)cc2)n1C(C)C .
> 1 µM

Looking for the measured IC50 of C=CC(=O)N1CCN(c2nc(=O)n(-c3c(C)ccnc3C(C)C)c3nc(-c4c(O)cccc4F)c(F)cc23)C(C)C1 (centres undefined) + Cc1c(S(C)(=O)=O)c(-c2cc(F)cc(N3CCN(c4ccc(NS(=O)(=O)c5ccc(NC(CCN6CCC(C(=O)OCCCP(=O)(O)O)CC6)CSc6ccccc6)c(S(=O)(=O)C(F)(F)F)c5)cc4)CC3)c2)c(-c2ccc(Cl)cc2)n1C(C)C , can you help?
> 10 µM

I am curious: what IC50 value has been reported for NC(=O)C(=Cn1cnc(-c2cc(C(F)(F)F)cc(C(F)(F)F)c2)n1)c1cncnc1 + CNC(C)C(=O)NC1CN(S(=O)(=O)c2cccc(S(=O)(=O)N3CCC4CCC(C(=O)NC(c5ccccc5)c5ccccc5)N4C(=O)C(NC(=O)C(C)NC)C3)c2)CCC2CCC(C(=O)NC(c3ccccc3)c3ccccc3)N2C1=O ?
> 0.3 µM

# IC50 lookup, item C=CC(=O)N1CCN(c2nc(=O)n(-c3c(C)ccnc3C(C)C)c3nc(-c4c(O)cccc4F)c(F)cc23)C(C)C1 (centres undefined) + CNC(C)C(=O)NC1CN(S(=O)(=O)c2cccc(S(=O)(=O)N3CCC4CCC(C(=O)NC(c5ccccc5)c5ccccc5)N4C(=O)C(NC(=O)C(C)NC)C3)c2)CCC2CCC(C(=O)NC(c3ccccc3)c3ccccc3)N2C1=O
> 10 µM
